target-of-assay: SRC (human) (UniProt P12931)
Sequence (P12931 whole entry, looked up): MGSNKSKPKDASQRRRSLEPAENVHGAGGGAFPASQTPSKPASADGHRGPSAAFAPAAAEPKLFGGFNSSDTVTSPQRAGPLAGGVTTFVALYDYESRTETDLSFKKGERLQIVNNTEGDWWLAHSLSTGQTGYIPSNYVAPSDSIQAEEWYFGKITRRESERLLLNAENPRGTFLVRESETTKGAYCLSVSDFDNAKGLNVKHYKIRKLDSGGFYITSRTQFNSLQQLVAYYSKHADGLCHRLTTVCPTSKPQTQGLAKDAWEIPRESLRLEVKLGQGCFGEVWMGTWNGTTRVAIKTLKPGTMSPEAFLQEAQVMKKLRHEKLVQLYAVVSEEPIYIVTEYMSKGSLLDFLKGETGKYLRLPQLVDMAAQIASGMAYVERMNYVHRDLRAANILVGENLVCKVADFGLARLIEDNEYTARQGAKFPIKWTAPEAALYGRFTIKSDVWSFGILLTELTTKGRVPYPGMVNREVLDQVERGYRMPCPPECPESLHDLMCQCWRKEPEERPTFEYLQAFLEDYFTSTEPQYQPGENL
assay-procedure: Free Choice Kinase Assay Projects, Flashplate
test-context: compound 10.0 µM; ATP 0.3 µM

smiles-data | residual activity
On1c(/C=C/c2ccccc2)nc(-c2ccncc2)c1-c1ccc(F)cc1 | 5%
Fc1ccc(-c2[nH]c(/C=C/c3ccccc3)nc2-c2ccncc2)cc1 | 8%
CSc1nc(-c2ccnc(N(C(=O)C3CC3)C(=O)C3CC3)c2)c(-c2ccc(F)cc2)n1C | 19%
CSc1nc(-c2ccnc(NC(C)=O)c2)c(-c2ccc(F)cc2)n1C | 29%

* * *

target-of-assay: MET (human) (UniProt P08581)
Sequence (P08581 whole entry, looked up): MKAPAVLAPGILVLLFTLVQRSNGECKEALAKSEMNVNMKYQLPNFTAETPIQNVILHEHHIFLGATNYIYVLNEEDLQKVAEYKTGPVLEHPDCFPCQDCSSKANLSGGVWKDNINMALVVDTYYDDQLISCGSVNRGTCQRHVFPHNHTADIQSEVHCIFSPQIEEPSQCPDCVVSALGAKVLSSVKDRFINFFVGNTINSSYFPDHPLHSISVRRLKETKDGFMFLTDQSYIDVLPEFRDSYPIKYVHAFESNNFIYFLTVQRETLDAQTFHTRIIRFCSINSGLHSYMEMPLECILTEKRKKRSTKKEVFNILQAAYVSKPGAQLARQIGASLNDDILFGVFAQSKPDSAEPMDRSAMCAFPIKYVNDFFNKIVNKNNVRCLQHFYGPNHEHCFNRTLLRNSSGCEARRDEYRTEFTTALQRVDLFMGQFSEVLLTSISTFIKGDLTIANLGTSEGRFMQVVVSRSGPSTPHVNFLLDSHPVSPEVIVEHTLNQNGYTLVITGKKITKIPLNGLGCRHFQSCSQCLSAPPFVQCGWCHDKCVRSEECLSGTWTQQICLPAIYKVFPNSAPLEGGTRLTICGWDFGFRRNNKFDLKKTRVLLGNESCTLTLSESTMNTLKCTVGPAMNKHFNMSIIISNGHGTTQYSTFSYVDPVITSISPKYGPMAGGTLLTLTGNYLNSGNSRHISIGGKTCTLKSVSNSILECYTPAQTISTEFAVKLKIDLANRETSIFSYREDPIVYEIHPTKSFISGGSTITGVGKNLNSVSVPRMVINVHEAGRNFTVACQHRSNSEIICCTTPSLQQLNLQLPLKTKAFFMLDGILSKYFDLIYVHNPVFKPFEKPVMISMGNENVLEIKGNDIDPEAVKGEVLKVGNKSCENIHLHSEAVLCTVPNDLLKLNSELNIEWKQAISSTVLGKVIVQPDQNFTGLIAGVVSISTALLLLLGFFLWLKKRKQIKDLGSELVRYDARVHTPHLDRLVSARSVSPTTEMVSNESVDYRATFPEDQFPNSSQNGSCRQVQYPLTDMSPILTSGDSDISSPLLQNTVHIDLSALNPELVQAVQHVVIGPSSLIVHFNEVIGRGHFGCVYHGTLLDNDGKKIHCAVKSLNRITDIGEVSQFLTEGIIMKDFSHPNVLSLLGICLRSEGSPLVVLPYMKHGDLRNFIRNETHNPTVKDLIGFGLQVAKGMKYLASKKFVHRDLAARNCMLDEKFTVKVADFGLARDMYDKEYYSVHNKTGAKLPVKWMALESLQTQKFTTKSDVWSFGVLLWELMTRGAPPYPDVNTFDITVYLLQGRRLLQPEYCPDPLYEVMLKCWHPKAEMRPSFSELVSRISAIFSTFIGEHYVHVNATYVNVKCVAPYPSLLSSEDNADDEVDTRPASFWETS
assay-procedure: Free Choice Kinase Assay Projects, Flashplate
test-context: compound 10.0 µM; ATP 0.3 µM
Each entry below carries its reported residual activity.
measure: residual activity (%)

smiles-data | endpoint-result
Fc1ccc(-c2[nH]c(SCCCc3ccccc3)nc2-c2ccncc2)cc1 | 81
Fc1ccc(-c2[nH]c(SCC3CCCCC3)nc2-c2ccncc2)cc1 | 73
Fc1ccc(-c2[nH]c(CCc3ccccc3)nc2-c2ccncc2)cc1 | 35
COc1ccc(C(=O)Nc2cc(-c3nc(SC)n(C)c3-c3ccc(F)cc3)ccn2)cc1 | 52

* * *

target-of-assay: UniProt:P41279
Sequence (P41279 whole entry, looked up): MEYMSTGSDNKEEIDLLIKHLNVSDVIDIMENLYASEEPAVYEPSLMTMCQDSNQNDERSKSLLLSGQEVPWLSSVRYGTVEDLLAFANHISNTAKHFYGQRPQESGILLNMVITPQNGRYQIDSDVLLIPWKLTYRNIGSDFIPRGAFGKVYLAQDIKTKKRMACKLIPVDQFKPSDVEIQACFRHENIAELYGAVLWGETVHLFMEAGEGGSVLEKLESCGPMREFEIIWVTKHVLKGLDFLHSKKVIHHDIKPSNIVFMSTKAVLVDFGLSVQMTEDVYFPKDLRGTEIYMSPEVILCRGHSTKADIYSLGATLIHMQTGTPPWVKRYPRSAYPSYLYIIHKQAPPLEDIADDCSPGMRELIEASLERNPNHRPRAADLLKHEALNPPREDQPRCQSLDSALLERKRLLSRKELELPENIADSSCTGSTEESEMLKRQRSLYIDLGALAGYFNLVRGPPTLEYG
assay-procedure: Free Choice Kinase Assay Projects, Flashplate
test-context: compound 10.0 µM; ATP 3 µM

smiles-data | target-of-assay | unit-abbreviation | residual activity
CSc1nc(-c2ccnc(NC(=O)C3CC3)c2)c(-c2ccc(F)cc2)n1C | UniProt:P41279 | % | 104
On1c(/C=C/c2ccccc2)nc(-c2ccncc2)c1-c1ccc(F)cc1 | UniProt:P41279 | % | 48
Fc1ccc(-c2[nH]c(CCc3ccccc3)nc2-c2ccncc2)cc1 | UniProt:P41279 | % | 69
On1c(CCc2ccccc2)nc(-c2ccncc2)c1-c1ccc(F)cc1 | UniProt:P41279 | % | 78

* * *

target-of-assay: ERBB2 (human)
assay-procedure: Free Choice Kinase Assay Projects, Flashplate
test-context: compound 10.0 µM; ATP 1 µM
Each entry below carries its reported residual activity.

compound | unit-abbreviation | residual activity
Fc1ccc(-c2[nH]c(SCc3ccccc3)nc2-c2ccncc2)cc1 | % | 23
COc1ccc(C(=O)Nc2cc(-c3nc(SC)n(C)c3-c3ccc(F)cc3)ccn2)cc1 | % | 17
N#CCSc1nc(-c2ccncc2)c(-c2ccc(F)cc2)[nH]1 | % | 2
CSc1ccc(CSc2nc(-c3ccncc3)c(-c3ccc(F)cc3)[nH]2)cc1 | % | 25
CC(Nc1cc(-c2nc(SCc3ccccc3)[nH]c2-c2ccc(F)cc2)ccn1)c1ccccc1 (stereo not given) | % | 21
Fc1ccc(-c2[nH]c(SCCc3ccccc3)nc2-c2ccncc2)cc1 | % | 41
Oc1cccc(CSc2nc(-c3ccncc3)c(-c3ccc(F)cc3)[nH]2)c1 | % | 2
Oc1ccccc1CSc1nc(-c2ccncc2)c(-c2ccc(F)cc2)[nH]1 | % | 11
Fc1ccc(-c2[nH]c(SCc3ccccc3)nc2-c2ccnc(Cl)c2)cc1 | % | 9
Fc1ccc(-c2[nH]c(SCCCc3ccccc3)nc2-c2ccncc2)cc1 | % | 30

* * *

target-of-assay: UniProt P08069
Sequence (P08069 whole entry, looked up): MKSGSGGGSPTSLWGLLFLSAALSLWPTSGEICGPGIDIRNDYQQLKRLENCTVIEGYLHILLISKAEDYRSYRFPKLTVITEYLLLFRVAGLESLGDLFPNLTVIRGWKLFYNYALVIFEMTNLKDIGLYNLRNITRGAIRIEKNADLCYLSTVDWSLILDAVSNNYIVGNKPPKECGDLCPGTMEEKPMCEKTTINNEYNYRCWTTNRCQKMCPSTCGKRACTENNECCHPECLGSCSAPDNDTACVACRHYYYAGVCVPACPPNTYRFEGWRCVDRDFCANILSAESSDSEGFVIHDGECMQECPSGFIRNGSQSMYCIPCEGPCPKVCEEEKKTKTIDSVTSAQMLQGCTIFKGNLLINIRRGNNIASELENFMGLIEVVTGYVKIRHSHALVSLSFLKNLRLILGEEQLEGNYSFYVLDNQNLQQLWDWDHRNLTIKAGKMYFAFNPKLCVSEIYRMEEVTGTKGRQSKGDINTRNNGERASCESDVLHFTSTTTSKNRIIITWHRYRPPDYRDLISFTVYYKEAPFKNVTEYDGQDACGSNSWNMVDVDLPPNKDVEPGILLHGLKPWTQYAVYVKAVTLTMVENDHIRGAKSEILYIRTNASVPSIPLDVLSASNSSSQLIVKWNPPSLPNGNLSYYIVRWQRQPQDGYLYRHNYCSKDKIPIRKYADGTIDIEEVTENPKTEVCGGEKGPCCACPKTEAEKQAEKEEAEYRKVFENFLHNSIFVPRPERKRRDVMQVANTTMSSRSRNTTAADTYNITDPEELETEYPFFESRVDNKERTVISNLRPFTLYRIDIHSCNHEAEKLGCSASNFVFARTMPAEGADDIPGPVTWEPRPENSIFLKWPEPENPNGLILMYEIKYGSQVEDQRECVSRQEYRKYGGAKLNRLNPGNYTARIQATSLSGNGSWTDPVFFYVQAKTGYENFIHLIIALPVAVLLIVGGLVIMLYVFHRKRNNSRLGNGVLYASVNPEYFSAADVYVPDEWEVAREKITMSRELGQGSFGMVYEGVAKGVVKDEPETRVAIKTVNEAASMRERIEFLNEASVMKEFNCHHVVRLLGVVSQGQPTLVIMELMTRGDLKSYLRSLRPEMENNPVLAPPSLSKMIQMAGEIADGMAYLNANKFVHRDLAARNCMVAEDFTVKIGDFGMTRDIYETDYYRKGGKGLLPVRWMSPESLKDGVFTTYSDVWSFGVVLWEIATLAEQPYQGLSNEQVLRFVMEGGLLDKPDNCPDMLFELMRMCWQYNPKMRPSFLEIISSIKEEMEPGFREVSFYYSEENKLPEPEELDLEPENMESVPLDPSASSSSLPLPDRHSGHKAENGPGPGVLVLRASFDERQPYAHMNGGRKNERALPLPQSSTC
assay-procedure: Free Choice Kinase Assay Projects, Flashplate
test-context: compound 10.0 µM; ATP 1 µM
Assign yes (1) whenever residual activity does not fall below 50%; assign no (0) whenever it does.

smiles-data | label-class
On1c(/C=C/c2ccccc2)nc(-c2ccncc2)c1-c1ccc(F)cc1 | no (0)
Fc1ccc(-c2[nH]c(CCc3ccccc3)nc2-c2ccncc2)cc1 | no (0)
Oc1ccc(CSc2nc(-c3ccncc3)c(-c3ccc(F)cc3)[nH]2)cc1 | yes (1)
CSc1nc(-c2ccnc(NC(=O)C3CC3)c2)c(-c2ccc(F)cc2)n1C | yes (1)
N#CCSc1nc(-c2ccncc2)c(-c2ccc(F)cc2)[nH]1 | yes (1)
COc1ccc(C(=O)Nc2cc(-c3nc(SC)n(C)c3-c3ccc(F)cc3)ccn2)cc1 | no (0)
CSc1nc(-c2ccnc(NC(=O)C3CCCC3)c2)c(-c2ccc(F)cc2)n1C | yes (1)
CSc1ccc(CSc2nc(-c3ccncc3)c(-c3ccc(Br)cc3)[nH]2)cc1 | no (0)

* * *

target-of-assay: AURKA (human) (UniProt O14965)
Sequence (O14965 whole entry, looked up): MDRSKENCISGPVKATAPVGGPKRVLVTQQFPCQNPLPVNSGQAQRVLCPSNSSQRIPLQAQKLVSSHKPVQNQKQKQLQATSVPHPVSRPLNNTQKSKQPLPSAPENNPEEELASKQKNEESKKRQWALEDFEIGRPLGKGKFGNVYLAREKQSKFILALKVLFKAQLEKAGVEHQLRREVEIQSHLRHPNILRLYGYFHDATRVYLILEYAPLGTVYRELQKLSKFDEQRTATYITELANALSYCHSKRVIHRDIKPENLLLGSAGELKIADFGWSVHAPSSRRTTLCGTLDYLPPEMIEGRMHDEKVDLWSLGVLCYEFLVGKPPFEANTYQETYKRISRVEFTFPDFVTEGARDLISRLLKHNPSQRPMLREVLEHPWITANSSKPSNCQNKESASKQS
assay-procedure: Free Choice Kinase Assay Projects, Flashplate
test-context: compound 10.0 µM; ATP 10 µM

smiles-data | unit-abbreviation | residual activity
Fc1ccc(-c2[nH]c(SCc3ccccc3)nc2-c2ccnc(Cl)c2)cc1 | % | 62
Oc1cccc(CSc2nc(-c3ccncc3)c(-c3ccc(F)cc3)[nH]2)c1 | % | 52
Fc1ccc(-c2[nH]c(SCc3ccccc3)nc2-c2ccnc(F)c2)cc1 | % | 93
Fc1ccc(-c2[nH]c(SCC3CCCCC3)nc2-c2ccncc2)cc1 | % | 46

* * *

target-of-assay: AXL (human)
assay-procedure: Free Choice Kinase Assay Projects, Flashplate
test-context: compound 10.0 µM; ATP 0.3 µM
# note: boundary value 60% maps to label 0; residual activity below it maps to label 1

compound | label-class
Fc1ccc(-c2[nH]c(SCc3ccccc3)nc2-c2ccnc(Cl)c2)cc1 | label 0
CSc1nc(-c2ccnc(NC(C)=O)c2)c(-c2ccc(F)cc2)n1C | label 1
Fc1ccc(-c2[nH]c(SCCCc3ccccc3)nc2-c2ccncc2)cc1 | label 0
Fc1ccc(-c2[nH]c(SCCc3ccccc3)nc2-c2ccncc2)cc1 | label 0
Fc1ccc(-c2[nH]c(CCc3ccccc3)nc2-c2ccncc2)cc1 | label 1
CSc1ccc(CSc2nc(-c3ccncc3)c(-c3ccc(Br)cc3)[nH]2)cc1 | label 0
Fc1ccc(-c2[nH]c(SCC3CCCCC3)nc2-c2ccncc2)cc1 | label 0
On1c(CCc2ccccc2)nc(-c2ccncc2)c1-c1ccc(F)cc1 | label 0
Oc1cccc(CSc2nc(-c3ccncc3)c(-c3ccc(F)cc3)[nH]2)c1 | label 0
CSc1nc(-c2ccnc(F)c2)c(-c2ccc(F)cc2)[nH]1 | label 0
CSc1nc(-c2ccnc(NC(=O)C3CC3)c2)c(-c2ccc(F)cc2)n1C | label 1
On1c(/C=C/c2ccccc2)nc(-c2ccncc2)c1-c1ccc(F)cc1 | label 1
CSc1ccccc1CSc1nc(-c2ccncc2)c(-c2ccc(F)cc2)[nH]1 | label 0
Fc1ccc(-c2[nH]c(SCc3ccccc3)nc2-c2ccncc2)cc1 | label 0
COc1ccc(C(=O)Nc2cc(-c3nc(SC)n(C)c3-c3ccc(F)cc3)ccn2)cc1 | label 1
CC(Nc1cc(-c2nc(SCc3ccccc3)[nH]c2-c2ccc(F)cc2)ccn1)c1ccccc1 (stereo not given) | label 1
CSc1nc(-c2ccnc(N(C(=O)C3CC3)C(=O)C3CC3)c2)c(-c2ccc(F)cc2)n1C | label 1
CSc1nc(-c2ccnc(NC(=O)C3CCCC3)c2)c(-c2ccc(F)cc2)n1C | label 0
CSc1ccc(CSc2nc(-c3ccncc3)c(-c3ccc(F)cc3)[nH]2)cc1 | label 0
Oc1ccc(CSc2nc(-c3ccncc3)c(-c3ccc(F)cc3)[nH]2)cc1 | label 0
N#CCSc1nc(-c2ccncc2)c(-c2ccc(F)cc2)[nH]1 | label 0
Fc1ccc(-c2[nH]c(SCc3ccccc3)nc2-c2ccnc(F)c2)cc1 | label 0
Oc1ccccc1CSc1nc(-c2ccncc2)c(-c2ccc(F)cc2)[nH]1 | label 0

* * *

Each entry below carries its reported residual activity.
target-of-assay: MAPK10 (human)
assay-procedure: Free Choice Kinase Assay Projects, Flashplate
test-context: compound 10.0 µM; ATP 0.3 µM
measure: residual activity (%)

molecule | measure | endpoint-result
CSc1nc(-c2ccnc(NC(=O)C3CCCC3)c2)c(-c2ccc(F)cc2)n1C | residual activity | 16
Fc1ccc(-c2[nH]c(SCc3ccccc3)nc2-c2ccncc2)cc1 | residual activity | 41
CSc1ccc(CSc2nc(-c3ccncc3)c(-c3ccc(Br)cc3)[nH]2)cc1 | residual activity | 64
CC(Nc1cc(-c2nc(SCc3ccccc3)[nH]c2-c2ccc(F)cc2)ccn1)c1ccccc1 (stereo unspecified) | residual activity | 20
CSc1nc(-c2ccnc(N(C(=O)C3CC3)C(=O)C3CC3)c2)c(-c2ccc(F)cc2)n1C | residual activity | 18
CSc1nc(-c2ccnc(NC(=O)C3CC3)c2)c(-c2ccc(F)cc2)n1C | residual activity | 11
Oc1ccc(CSc2nc(-c3ccncc3)c(-c3ccc(F)cc3)[nH]2)cc1 | residual activity | 48
On1c(CCc2ccccc2)nc(-c2ccncc2)c1-c1ccc(F)cc1 | residual activity | 14
Fc1ccc(-c2[nH]c(SCCc3ccccc3)nc2-c2ccncc2)cc1 | residual activity | 81
Fc1ccc(-c2[nH]c(SCc3ccccc3)nc2-c2ccnc(F)c2)cc1 | residual activity | 88
CSc1nc(-c2ccnc(NC(C)=O)c2)c(-c2ccc(F)cc2)n1C | residual activity | 11
Oc1ccccc1CSc1nc(-c2ccncc2)c(-c2ccc(F)cc2)[nH]1 | residual activity | 46
CSc1ccc(CSc2nc(-c3ccncc3)c(-c3ccc(F)cc3)[nH]2)cc1 | residual activity | 72
N#CCSc1nc(-c2ccncc2)c(-c2ccc(F)cc2)[nH]1 | residual activity | 12
COc1ccc(C(=O)Nc2cc(-c3nc(SC)n(C)c3-c3ccc(F)cc3)ccn2)cc1 | residual activity | 18
Fc1ccc(-c2[nH]c(SCc3ccccc3)nc2-c2ccnc(Cl)c2)cc1 | residual activity | 57
Fc1ccc(-c2[nH]c(/C=C/c3ccccc3)nc2-c2ccncc2)cc1 | residual activity | 11
Fc1ccc(-c2[nH]c(SCC3CCCCC3)nc2-c2ccncc2)cc1 | residual activity | 63
Oc1cccc(CSc2nc(-c3ccncc3)c(-c3ccc(F)cc3)[nH]2)c1 | residual activity | 17
CSc1ccccc1CSc1nc(-c2ccncc2)c(-c2ccc(F)cc2)[nH]1 | residual activity | 58
On1c(/C=C/c2ccccc2)nc(-c2ccncc2)c1-c1ccc(F)cc1 | residual activity | 9
